# experimental system: T1, FZD10 cysteine-rich domain (CRD), MYC-tagged and GPI-anchored on CHO cells (human, UniProt Q9ULW2 30-156, GPI anchor)
# T1 construct: also called FZD10 CRD; CHO-myc-FZDGPI; not shown: MYC tag and GPI anchor signal
# T1 sequence: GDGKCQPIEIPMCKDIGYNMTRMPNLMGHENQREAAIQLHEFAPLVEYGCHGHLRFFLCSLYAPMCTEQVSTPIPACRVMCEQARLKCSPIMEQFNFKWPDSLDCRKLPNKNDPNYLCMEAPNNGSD
# experiment summary: immunofluorescence, CHO-CRD cells

| binder | binding result |
| --- | --- |
| Fab-2920 (Fab, V domains shown, Fab) VH: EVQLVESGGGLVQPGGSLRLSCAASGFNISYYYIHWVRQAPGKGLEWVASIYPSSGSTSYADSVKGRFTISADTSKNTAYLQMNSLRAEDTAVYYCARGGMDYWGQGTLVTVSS VL: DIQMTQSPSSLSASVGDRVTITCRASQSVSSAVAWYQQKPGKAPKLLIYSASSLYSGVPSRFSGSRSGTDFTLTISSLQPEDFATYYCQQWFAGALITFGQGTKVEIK | no binding |
| Fab-2902 (Fab, V domains shown, Fab; also called Fv-2902) VH: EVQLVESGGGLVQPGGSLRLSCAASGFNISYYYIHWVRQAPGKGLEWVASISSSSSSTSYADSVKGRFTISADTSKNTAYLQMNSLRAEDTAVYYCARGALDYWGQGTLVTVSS VL: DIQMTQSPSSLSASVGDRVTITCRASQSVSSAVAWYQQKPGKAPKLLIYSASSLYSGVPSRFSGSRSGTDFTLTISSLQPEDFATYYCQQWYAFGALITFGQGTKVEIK | no binding |

All figures here come from patent US20210253718A1.
